# system-tested: mGluR5 (Rattus norvegicus)
# Sequence (P31424 21-1203): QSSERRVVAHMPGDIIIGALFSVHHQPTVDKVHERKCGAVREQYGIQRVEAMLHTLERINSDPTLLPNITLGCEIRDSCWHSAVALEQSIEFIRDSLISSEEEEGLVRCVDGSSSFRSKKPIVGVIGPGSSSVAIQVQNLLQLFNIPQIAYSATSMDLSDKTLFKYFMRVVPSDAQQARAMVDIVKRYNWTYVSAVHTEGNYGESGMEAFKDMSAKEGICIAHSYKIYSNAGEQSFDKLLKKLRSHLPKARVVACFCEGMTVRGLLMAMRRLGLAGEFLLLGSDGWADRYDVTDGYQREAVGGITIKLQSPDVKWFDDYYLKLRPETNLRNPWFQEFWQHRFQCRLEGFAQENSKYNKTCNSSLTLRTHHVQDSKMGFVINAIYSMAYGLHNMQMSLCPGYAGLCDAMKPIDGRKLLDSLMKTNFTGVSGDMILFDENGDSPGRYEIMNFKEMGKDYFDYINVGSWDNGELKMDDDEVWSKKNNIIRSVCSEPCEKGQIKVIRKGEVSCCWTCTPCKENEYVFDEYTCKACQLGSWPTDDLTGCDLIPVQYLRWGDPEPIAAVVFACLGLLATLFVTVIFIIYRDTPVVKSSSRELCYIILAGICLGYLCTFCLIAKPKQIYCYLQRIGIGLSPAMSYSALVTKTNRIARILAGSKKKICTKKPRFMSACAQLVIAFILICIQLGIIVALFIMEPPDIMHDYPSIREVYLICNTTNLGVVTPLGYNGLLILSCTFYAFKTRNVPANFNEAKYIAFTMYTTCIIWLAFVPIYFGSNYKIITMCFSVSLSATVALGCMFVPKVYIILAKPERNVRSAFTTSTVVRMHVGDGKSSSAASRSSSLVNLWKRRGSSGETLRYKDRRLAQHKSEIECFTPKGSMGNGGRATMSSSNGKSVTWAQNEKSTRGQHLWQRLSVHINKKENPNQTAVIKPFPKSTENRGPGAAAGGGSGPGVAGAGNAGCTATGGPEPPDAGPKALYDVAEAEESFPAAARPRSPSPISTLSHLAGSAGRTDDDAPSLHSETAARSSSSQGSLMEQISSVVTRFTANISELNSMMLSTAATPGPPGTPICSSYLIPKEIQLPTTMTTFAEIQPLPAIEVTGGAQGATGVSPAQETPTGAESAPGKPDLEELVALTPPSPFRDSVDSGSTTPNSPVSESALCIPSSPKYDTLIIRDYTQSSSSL
# test-method-notes: mGluR5 negative allosteric modulation, decrease in response to non-maximal glutamate in HEK cells
# test-settings: Table 3; read-out: mGlu5 IC50
recorded-metric: IC50 (nM)
Report as a plain number; the unit nM is understood.

Give the reported value of IC50 for this record: Clc1cc(Nc2n[nH]c3cccnc23)ccc1Nc1ncccn1
3600

Identify measured IC50 corresponding to Clc1cc(Nc2n[nH]c3cccnc23)ccc1Nc1cnc2ccccc2n1
3700

====

# system-tested: mGluR4 (UniProt Q14833)
# test-method-notes: mGluR4 potentiation assay (Ca2+ or thallium flux fluorescence, agonist EC20)
# Type: cell-based, human or rat
# test-settings: Table 2; potentiation of mGluR4 agonist response; read-out: EC50
recorded-metric: EC50 (µM)
Give just the number in µM; leave the unit off.

Recorded results for 3 compounds are shown here.
# compound, recorded-metric, recorded-result
data = [
    ("CC(Oc1ccc(Nc2n[nH]c3cccnc23)cc1Cl)c1ccccc1 (centres unmarked)", "EC50", 1.6),
    ("N#Cc1cncc(Oc2ccc(Nc3n[nH]c4cccnc34)cc2Cl)c1", "EC50", 0.0848),
    ("Clc1cc(Nc2n[nH]c3cccnc23)ccc1OCC1CCCC1", "EC50", 0.4),
]

Lab note: record EC50 of Fc1ccccc1COc1ccc(Nc2n[nH]c3cccnc23)cc1Cl tested on mGluR4 (UniProt Q14833).
0.18

Retrieve EC50 on mGluR4 (UniProt Q14833); query FC(F)(F)c1ccnc(Oc2ccc(Nc3n[nH]c4cccnc34)cc2Cl)c1
0.497

// provenance: patent US9108963B2
